Parameter variant/HC_K99L: see the listing below.
Molecular target: T1, human tissue factor pathway inhibitor (TFPI) (human, UniProt P10646 29-304, limits assumed)
T1 construct: bought; also called hTFPI; human TFPI
T1 sequence (looked up): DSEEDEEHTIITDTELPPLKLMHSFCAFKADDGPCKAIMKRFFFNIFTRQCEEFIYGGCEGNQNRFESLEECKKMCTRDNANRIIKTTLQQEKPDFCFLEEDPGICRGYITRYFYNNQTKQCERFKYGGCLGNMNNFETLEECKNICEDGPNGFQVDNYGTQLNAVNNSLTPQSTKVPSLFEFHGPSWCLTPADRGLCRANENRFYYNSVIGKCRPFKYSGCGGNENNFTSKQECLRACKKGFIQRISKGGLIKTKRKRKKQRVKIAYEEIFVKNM
Test: competitive ELISA
Enter your answer as a number in ratio; do not include the unit.

2A8 HC S31V+I51D+S55R/LC Y48F+N51V+D91L (Fab, V domains shown) VH: QVQLVESGGGLVQPGGSLRLSCAASGFTFRVYGMSWVRQAPGKGLEWVSSDRGSRSSTYYADSVKGRFTISRDNSKNTLYLQMNSLRAEDTAVYYCARKYRYWFDYWGQGTLVTVSS VL: DIELTQPPSVSVAPGQTARISCSGDNLRNYYAHWYQQKPGQAPVVVIFYDVNRPSGIPERFSGSNSGNTATLTISGTQAEDEADYYCQSWLDGVPVFGGGTKLTVLG ... 8.4
2A8 HC S35D+K99L/LC Y48F+S89A+D91L+V96W (Fab, V domains shown) VH: QVQLVESGGGLVQPGGSLRLSCAASGFTFRSYGMDWVRQAPGKGLEWVSSIRGSSSSTYYADSVKGRFTISRDNSKNTLYLQMNSLRAEDTAVYYCARLYRYWFDYWGQGTLVTVSS VL: DIELTQPPSVSVAPGQTARISCSGDNLRNYYAHWYQQKPGQAPVVVIFYDNNRPSGIPERFSGSNSGNTATLTISGTQAEDEADYYCQAWLDGVPWFGGGTKLTVLG ... 4.4

Now for the binder whose variant/HC_K99L we want.
Lookup: Given the entry 2A8 HC S35D+S55R+K99L/LC Y48F+N51V+E80M+D91W (Fab, V domains shown) VH: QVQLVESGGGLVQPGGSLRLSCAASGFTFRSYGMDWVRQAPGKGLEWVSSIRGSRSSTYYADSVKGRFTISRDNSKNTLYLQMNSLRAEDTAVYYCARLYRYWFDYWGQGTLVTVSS VL: DIELTQPPSVSVAPGQTARISCSGDNLRNYYAHWYQQKPGQAPVVVIFYDVNRPSGIPERFSGSNSGNTATLTISGTQAMDEADYYCQSWWDGVPVFGGGTKLTVLG , report its measured variant/HC_K99L.
Found: 23.1
